# Test system: Staphylococcus epidermidis
# experiment_summary: Antibacterial activity against methicillin-sensitive Staphylococcus epidermidis 12-8 after 18 to 24 hrs by standard twofold serial dilution method
# Assay type: functional
reported_metric: MIC (µg/mL)
Please reply with the bare figure in µg/mL and do not write the unit itself.

# molecule, tested_on, MIC, µg/mL
records = [
    ("CO/N=C1/CN(c2cc3c(cc2F)c(=O)c(C(=O)O)cn3[C@@H]2C[C@@H]2F)CC1CN (stereo partly drawn)", "Staphylococcus epidermidis", 0.25),
]

Problem: Consider the molecule shown here: NCC1CN(c2c(F)cc3c(=O)c(C(=O)O)cn([C@@H]4C[C@@H]4F)c3c2Cl)C/C1=N/OCc1ccccc1 (stereo partly drawn) What is its recorded MIC?
Solution: 64

Problem: Item under review: CO/N=C1/CN(c2c(F)cc3c(=O)c(C(=O)O)cn([C@@H]4C[C@@H]4F)c3c2Cl)CC1CN (stereo partly drawn) . Reported MIC?
Solution: 2

Problem: For the molecule CO/N=C1/CN(c2nc3c(cc2F)c(=O)c(C(=O)O)cn3[C@@H]2C[C@@H]2F)CC1CN (stereo partly drawn) , what MIC is on record?
Solution: 1

Problem: So what's the measured MIC for this one? `NC[C@@H]1/C(=N\OCc2ccccc2)CN1c1nc2c(cc1F)c(=O)c(C(=O)O)cn2[C@@H]1C[C@@H]1F`
Solution: 32

Problem: Look at this molecule and give its reported MIC. `CO/N=C1/CN(c2nc3c(cc2F)c(=O)c(C(=O)O)cn3[C@@H]2C[C@@H]2F)[C@H]1CN`
Solution: 2

Problem: May I ask what MIC has been recorded for CCO/N=C1/CN(c2cc3c(cc2F)c(=O)c(C(=O)O)cn3[C@@H]2C[C@@H]2F)CC1CN (stereo partly drawn) ?
Solution: 0.5
